Target: Fibroblast growth factor 10 (Homo sapiens) (UniProt O15520)
Sequence (O15520 whole entry, looked up): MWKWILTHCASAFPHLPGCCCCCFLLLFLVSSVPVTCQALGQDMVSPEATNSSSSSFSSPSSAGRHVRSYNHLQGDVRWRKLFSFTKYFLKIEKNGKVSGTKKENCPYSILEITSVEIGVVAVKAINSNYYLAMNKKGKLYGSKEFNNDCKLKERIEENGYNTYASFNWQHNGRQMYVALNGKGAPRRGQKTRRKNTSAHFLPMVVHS
Assay: FGF10 binders on small-molecule microarrays, primary screen, biochemical, small-molecule microarray, 635 nm fluorescence (AID 1102)
Settings: FGF10 binding, fluorescence 635 nm, higher = more signal
Use Met when the recorded composite z-score is no lower than 1; use Not met when it is lower.

compound	tested_on	category_label
CC(C)c1ccc(NN2C(C(O)C(c3ccccc3)c3ccccc3)C=CC3C(=O)N(c4ccccc4)C(=O)C32)cc1 (configuration not stated)	Fibroblast growth factor 10 (Homo sapiens) (UniProt O15520)	Met
COCCCNC(=O)C1N=C(c2ccc(OCCCO)cc2)N(c2ccccc2)O1 (configuration not stated)	Fibroblast growth factor 10 (Homo sapiens) (UniProt O15520)	Met
COc1ccc(CCN2C(=O)[C@@]3(c4ccc([N+](=O)[O-])cc4)CC(=O)N(C4CCCCC4)[C@@H]3c3ccc(CO)cc32)cc1	Fibroblast growth factor 10 (Homo sapiens) (UniProt O15520)	Not met
[N-]=[N+]=Nc1ccccc1[C@H]1OC(c2ccc(OCCCO)cc2)=N[C@@]1(Cc1ccccc1)C(=O)O	Fibroblast growth factor 10 (Homo sapiens) (UniProt O15520)	Not met
COc1cc2c(cc1OC)CN(C(=O)[C@H]1[C@@H]3C(=O)O[C@@H](c4ccccc4)[C@@H](c4ccccc4)N3[C@@H](c3ccc(O)cc3)[C@]13C(=O)Nc1ccc(C#CCNC(N)=O)cc13)CC2	Fibroblast growth factor 10 (Homo sapiens) (UniProt O15520)	Met
CN(C)C(=O)[C@@]1(Cc2ccccc2CN=[N+]=[N-])N=C(c2ccc(OCCCO)cc2)O[C@H]1c1ccccc1	Fibroblast growth factor 10 (Homo sapiens) (UniProt O15520)	Met
